Here, each record is paired with measured Ki data.
assayed_target: 5-hydroxytryptamine receptor 2A (Rattus norvegicus, UniProt P14842)
Sequence (P14842 whole entry): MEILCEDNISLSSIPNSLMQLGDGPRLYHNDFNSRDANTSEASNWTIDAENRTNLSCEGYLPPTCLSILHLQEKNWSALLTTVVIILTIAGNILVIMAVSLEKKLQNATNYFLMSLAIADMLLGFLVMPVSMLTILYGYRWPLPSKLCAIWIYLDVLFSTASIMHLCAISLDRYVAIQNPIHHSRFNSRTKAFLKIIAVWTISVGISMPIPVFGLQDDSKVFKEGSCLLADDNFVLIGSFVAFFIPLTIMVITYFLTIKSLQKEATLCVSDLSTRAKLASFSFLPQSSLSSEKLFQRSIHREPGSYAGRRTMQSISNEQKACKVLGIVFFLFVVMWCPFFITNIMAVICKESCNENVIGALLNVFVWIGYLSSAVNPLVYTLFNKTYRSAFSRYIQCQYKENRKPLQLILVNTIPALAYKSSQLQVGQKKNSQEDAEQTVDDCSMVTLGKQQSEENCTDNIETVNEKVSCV
method_notes: Binding affinity at 5-hydroxytryptamine 2A receptor of rat.

{"smiles_repr": "COc1ccc2c3c([nH]c2c1)CNCC3", "Ki": "> 1000 nM"}

# ---- query molecule ----
Measured Ki of "Brc1cccc2[nH]c3c(c12)CCN=C3" : 180 nM

###

assayed_target: Alpha-2A adrenergic receptor (Rattus norvegicus)
Sequence (P22909 whole entry): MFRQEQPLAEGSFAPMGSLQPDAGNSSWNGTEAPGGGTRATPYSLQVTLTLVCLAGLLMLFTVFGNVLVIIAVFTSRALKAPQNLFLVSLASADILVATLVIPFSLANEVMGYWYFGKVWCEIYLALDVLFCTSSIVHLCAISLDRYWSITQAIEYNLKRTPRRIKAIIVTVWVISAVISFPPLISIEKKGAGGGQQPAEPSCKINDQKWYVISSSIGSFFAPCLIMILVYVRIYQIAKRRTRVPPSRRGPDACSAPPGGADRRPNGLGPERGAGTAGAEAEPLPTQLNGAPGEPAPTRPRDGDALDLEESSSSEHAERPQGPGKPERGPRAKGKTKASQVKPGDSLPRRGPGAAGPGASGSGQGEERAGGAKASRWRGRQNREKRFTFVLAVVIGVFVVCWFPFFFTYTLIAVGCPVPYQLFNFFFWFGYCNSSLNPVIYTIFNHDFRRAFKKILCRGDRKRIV
reported_metric: pKi
To interpret pKi, take it as minus log10 of a concentration measured in moles per litre.

Measured pKi of "Brc1cccc2c3c([nH]c12)CNCC3" : 6.34

Where do these numbers come from? They come from ChEMBL document CHEMBL1149219.
